# credit: patent US8765949B2

- assayed_system: CCR2 (Homo sapiens, UniProt P41597)
- Construct: Membranes were prepared from THP-1 cells; endogenous in cells
- Sequence (P41597 1-360 isoform P41597-2): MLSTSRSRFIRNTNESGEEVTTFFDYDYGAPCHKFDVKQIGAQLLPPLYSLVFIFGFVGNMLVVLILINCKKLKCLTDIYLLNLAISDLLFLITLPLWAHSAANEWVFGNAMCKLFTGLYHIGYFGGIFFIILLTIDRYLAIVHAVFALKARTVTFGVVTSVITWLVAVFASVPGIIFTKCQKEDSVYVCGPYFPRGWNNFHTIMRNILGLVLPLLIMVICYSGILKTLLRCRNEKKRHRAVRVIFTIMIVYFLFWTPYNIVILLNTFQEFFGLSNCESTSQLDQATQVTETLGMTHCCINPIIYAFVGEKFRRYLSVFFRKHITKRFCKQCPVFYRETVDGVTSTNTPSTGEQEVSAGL
- assay_summary: CCR2 receptor membrane binding assay ([125I]MCP-1, THP-1 membranes, SPA beads)
- test_conditions: dissociation constant hKi; THP-1 cell membranes, [125I]MCP-1, bound radioactivity after 8 h
property: Ki (nM)

CO[C@H]1COCC[C@H]1NC1CCN(C(=O)c2ncnc(NC[C@H]3CCC[C@@H](c4ccc(Cl)cc4)O3)c2C)CC1
8

A. Cc1ccc([C@@H]2CCC[C@H](CNc3ncnc(C(=O)N4CCC(N5CCC(N(C)S(C)(=O)=O)CC5)CC4)c3C)O2)cc1 [Example 1]
B. COc1nc(NC[C@H]2CCC[C@@H](c3ccc(OC(F)(F)F)cc3)O2)cc(C(=O)N2CCC(N[C@@H]3CCOC[C@@H]3OC)CC2)n1 [Example 53q]
-- ask Between these two entries, A and B , state which has the higher Ki. // respond with label for picked entry
-- reply A

###

- assayed_system: CCR2 (Homo sapiens, UniProt P41597)
- Construct: Membranes were prepared from THP-1 cells; endogenous in cells
- Sequence (P41597 1-360 isoform P41597-2): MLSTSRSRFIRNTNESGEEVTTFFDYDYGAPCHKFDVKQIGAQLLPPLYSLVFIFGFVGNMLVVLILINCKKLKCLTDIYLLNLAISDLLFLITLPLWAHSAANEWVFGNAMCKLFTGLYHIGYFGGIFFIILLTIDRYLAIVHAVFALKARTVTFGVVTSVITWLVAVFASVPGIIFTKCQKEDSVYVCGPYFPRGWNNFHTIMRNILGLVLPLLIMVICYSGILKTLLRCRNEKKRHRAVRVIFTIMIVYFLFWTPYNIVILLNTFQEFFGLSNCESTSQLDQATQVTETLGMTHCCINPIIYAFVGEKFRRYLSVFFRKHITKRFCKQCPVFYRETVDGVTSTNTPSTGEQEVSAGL
- assay_summary: CCR2 receptor membrane binding assay ([125I]MCP-1, THP-1 membranes, SPA beads)
- test_conditions: dissociation constant hKi; THP-1 cell membranes, [125I]MCP-1, bound radioactivity after 8 h
- Experimental: The above exemplary substances have been tested for binding to CCR2 using a binding assay as outlined herein below: THP-1 cells (human acute monocytic leukaemia cells) were cultured under standardized conditions at 37° C. and 5% CO2 in a humidified incubator. […] Perkin Elmer NEX 332 Jod 125 MCP-1, Stock: 2200 Ci/mmol solved in 2000 μl assay buffer, stored at −20° C. […] Bound radioactivity was determined by scintillation counter after 8 h. […]
pKi: −log10 of the molar value.
property: pKi

Cc1ccc([C@@H]2CCC[C@H](CNc3nc(C)nc(C(=O)N4CCC(N5CCC(N(C)S(C)(=O)=O)CC5)CC4)c3C)O2)cc1 [Example 20]
7.96
COC1CCN(C2CCN(C(=O)c3ncnc(NC[C@@H]4CCC[C@H](c5cccc(C(F)(F)F)c5)O4)c3C)CC2)CC1
6.69
Cc1c(NCC2CCCC(c3ccc(C(F)(F)F)o3)O2)ncnc1C(=O)N1CCC(N2CCC(N(C)S(C)(=O)=O)CC2)CC1 (stereo not drawn) [Example 28b]
9.30

a. CO[C@H]1COCC[C@H]1NC1CCN(C(=O)c2ncnc(NC[C@H]3CCC[C@@H](c4ccc(OC(F)(F)F)cc4)O3)c2C)CC1 [Example 53f]
b. COC1CCN(C2CCN(C(=O)c3ncnc(NC[C@H]4CCC[C@@H](c5ccc(C(F)(F)F)cc5)O4)c3C)CC2)CC1
-- ask Returns the identifier with the smallest measured pKi among a and b . // respond with label for picked entry
-- reply b

###

- assayed_system: CCR2 (Homo sapiens, UniProt P41597)
- Construct: Membranes were prepared from THP-1 cells; endogenous in cells
- assay_summary: CCR2 receptor membrane binding assay ([125I]MCP-1, THP-1 membranes, SPA beads)
- test_conditions: dissociation constant hKi; THP-1 cell membranes, [125I]MCP-1, bound radioactivity after 8 h
pKi: −log10 of the molar value.
property: pKi

Solved entries (count: 5):
CO[C@@H]1COCC[C@@H]1NC1CCN(C(=O)c2ncnc(NC[C@H]3CCC[C@@H](c4ccc(Cl)cc4)O3)c2C)CC1
8.52
CO[C@@H]1COCC[C@@H]1NC1CCN(C(=O)c2ncnc(NC[C@H]3CCC[C@@H](c4ccc(C(F)(F)F)cc4)O3)c2C)CC1
9.00
CO[C@@H]1COCC[C@@H]1NC1CCN(C(=O)c2ncnc(NC[C@@H]3CCC[C@H](c4ccccc4)O3)c2C)CC1
6.54
Cc1cccc([C@H]2CCC[C@@H](CNc3nc(C)nc(C(=O)N4CCC(N5CCC(N(C)S(C)(=O)=O)CC5)CC4)c3C)O2)c1
6.18
Cc1c(NC[C@@H]2CCC[C@H](c3cccc(C(F)(F)F)c3)O2)ncnc1C(=O)N1CCC(N2CCC(N(C)S(C)(=O)=O)CC2)CC1 [Example 7]
7.44

1. Cc1ccc(C2CCC[C@H](CNc3ncnc(C(=O)N4CCC(N5CCC(c6ccc(C(=O)O)cc6)C5)CC4)c3C)O2)cc1 (stereo partly shown)
2. Cc1c(NC[C@H]2CCC[C@@H](c3ccc(OC(F)(F)F)cc3)O2)ncnc1C(=O)N1CCC(NC2CCOCC2F)CC1 (stereo partly shown) [Example 53w]
-- ask Could you tell me which of 1 and 2 has the lower pKi reading? Label of pick, please.
-- reply 1

a. CO[C@H]1COCC[C@H]1NC1CCN(C(=O)c2ncnc(NC[C@H]3CCC[C@@H](c4ccc(C)cc4)O3)c2C)CC1
b. CO[C@@H]1COCC[C@@H]1NC1CCN(C(=O)c2nc(C(F)(F)F)nc(NC[C@H]3CCC[C@@H](c4ccccc4)O3)c2C)CC1 [Example 53ai]
-- ask Hey, between a and b which has a smaller measured pKi? I would appreciate it if you answered with the label of your choice.
-- reply a
(a: 8.30, b: 8.96)

###

- assayed_system: CCR2 (Homo sapiens)
- Construct: Membranes were prepared from THP-1 cells; endogenous in cells
- assay_summary: CCR2 receptor membrane binding assay ([125I]MCP-1, THP-1 membranes, SPA beads)
- test_conditions: dissociation constant hKi; THP-1 cell membranes, [125I]MCP-1, bound radioactivity after 8 h
pKi: −log10 of the molar value.
property: pKi

Some entries whose results are on file:
CO[C@@H]1COCC[C@@H]1NC1CCN(C(=O)c2ncnc(NC[C@@H]3CCC[C@H](c4ccc(Cl)cc4)O3)c2C)CC1
7.41
COc1nc(NC[C@H]2CCC[C@@H](c3ccc(OC(F)(F)F)cc3)O2)c(C)c(C(=O)N2CCC(N[C@@H]3CCOC[C@@H]3OC)CC2)n1 [Example 53ad]
9.52
CO[C@H]1COCC[C@H]1NC1CCN(C(=O)c2ccnc(NC[C@H]3CCC[C@@H](c4ccc(C)cc4)O3)c2C)CC1 [Example 53e]
7.80

I. Cc1c(NC[C@H]2CCC[C@@H](c3ccc(OC(F)(F)F)cc3)O2)ncnc1C(=O)N1CCC(N[C@H]2CCOC[C@H]2F)CC1 [Example 53aj]
II. CO[C@H]1COCC[C@H]1NC1CCN(C(=O)c2nccc(NC[C@H]3CCC[C@@H](c4ccc(C)cc4)O3)c2C)CC1 [Example 53j]
-- ask Select one: I or II . Criterion: greater recorded pKi. Indicate your choice by writing its label.
-- reply I
(I: 9.15, II: 7.68)

###

- assayed_system: CCR2 (Homo sapiens)
- Construct: Membranes were prepared from THP-1 cells; endogenous in cells
- assay_summary: CCR2 receptor membrane binding assay ([125I]MCP-1, THP-1 membranes, SPA beads)
- test_conditions: dissociation constant hKi; THP-1 cell membranes, [125I]MCP-1, bound radioactivity after 8 h
pKi: −log10 of the molar value.
property: pKi

CO[C@H]1COCC[C@H]1NC1CCN(C(=O)c2cc(NC[C@H]3CCC[C@@H](c4ccc(C(F)(F)F)cc4)O3)nc(C(F)(F)F)n2)CC1 [Example 53s]
9.70

1. Cc1c(NC[C@H]2CCC[C@@H](c3ccc(C(F)(F)F)cc3)O2)ncnc1C(=O)N1CCC(N2CCC3(CC2)Cc2ccccc2O3)CC1 [Example 53y]
2. CO[C@H]1COCC[C@H]1NC1CCN(C(=O)c2nc(C)nc(NC[C@@H]3CCC[C@H](c4cccc(C)c4)O3)c2C)CC1 [Example 34]
-- ask Just tell me: smaller pKi value, 1 or 2 ? Lab log: write the label of the selected item as the result.
-- reply 2
(2: 7.20, 1: 7.80)
